target: T1, cynomolgus CD47 on CHO-K1 stable cell line (cynomolgus, UniProt A0A5F8AK49 19-323 (rhesus entry)); assay: flow cytometry on cynomolgus CD47 CHO-K1 cells
T1 construct: whole, on cells; also called cynomolgus CD47/CHO-K1
quantity.measured: pEC50
Just the number, please; pEC50 means minus log10 of the concentration in mol/L.

// known answers, use as guide
>>> measured("108VH5.M16 / 108VL1.M5 (antibody, human IgG4 S228P, kappa, V domains shown, Full-length IgG4 (S228P), kappa; also called VH5.M16 VL1.M5) VH: EVQLVQSGAEVKKPGASVKVSCKASGYTFTHHWMHWVRQAPGQGLEWMGMIDASDGETRYAQKFQGRVTMTRDTSTSTVYMELSSLRSEDTAVYYCARLGRYYFDYWGQGTLVTVSS VL: EIVLTQSPATLSLSPGERATLSCRASQSVSSYLAWYQQKPGQAPRLLIYGASNRATGIPARFSGSGSGTDFTLTISSLEPEDFAVYYCGESYGHLYTFGGGTKVEIKR")
8.74
>>> measured("108VH5.M22 / 108VL1.M5 (antibody, human IgG4 S228P, kappa, V domains shown, Full-length IgG4 (S228P), kappa; also called VH5.M22 VL1.M5) VH: EVQLVQSGAEVKKPGASVKVSCKASGYTFTHHWMHWVRQAPGQGLEWMGMIDASDIETRYAQKFQGRVTMTRDTSTSTVYMELSSLRSEDTAVYYCARLGRYYFDYWGQGTLVTVSS VL: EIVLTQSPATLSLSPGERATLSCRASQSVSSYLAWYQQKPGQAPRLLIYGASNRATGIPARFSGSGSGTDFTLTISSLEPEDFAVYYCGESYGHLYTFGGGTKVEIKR")
8.44

Here is the next item to consider.
Query :: Which value of pEC50 has been reported for 108VH5.M27 / 108VL1.M5 (antibody, human IgG4 S228P, kappa, V domains shown, Full-length IgG4 (S228P), kappa; also called VH5.M27 VL1.M5) VH: EVQLVQSGAEVKKPGASVKVSCKASGYTFTHHWMHWVRQAPGQGLEWMGMIDASDYETRYAQKFQGRVTMTRDTSTSTVYMELSSLRSEDTAVYYCARLGRYYFDYWGQGTLVTVSS VL: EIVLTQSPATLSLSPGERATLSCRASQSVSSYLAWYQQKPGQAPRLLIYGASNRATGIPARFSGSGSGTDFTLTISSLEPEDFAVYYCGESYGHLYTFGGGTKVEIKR in the records?
Result :: 8.47
